System: NCI/ADR-RES ovarian
test_method_notes: NCI tumour cell line growth inhibition, 48 h
measurement_type: TGI

# count of solved cases: 3
molecule	measurement_type	value_reported
N#CC1C(=O)NC23CCCCC2C1c1ccccc1O3 (centres undefined)	TGI	> 100 µM
O=[N+]([O-])c1cccc2nnccc12	TGI	> 100 µM
COc1cccc(OC(=O)c2ccc(C(F)(F)F)nc2Nc2cc(Cl)ccc2C)c1	TGI	> 100 µM

response.value for CC1=C2[C@@H](CC1)[C@]1(C)O[C@@](c3ccccc3)(C[C@H]1OC(=O)CO)[C@H]2OC(=O)/C=C/c1ccccc1 (field: TGI) = 16 µM

response.value for COC1/C=C/C(C)C(C(C)C(OC)C(C)CCC(=O)C(C)C(C/C=C/N(C)C=O)OC)OC(=O)C=CC2OC2(C)CC(OC)C(OC)C2=CC(=O)O[C@@H](C(C)C(OC)CC(OC)/C=C/C(C)C(O)C1)[C@H]2O (some centres undefined) (field: TGI) = 0.263 µM
